tested-target: Retinoic acid receptor alpha (Homo sapiens, UniProt P10276)
Sequence (P10276 whole entry): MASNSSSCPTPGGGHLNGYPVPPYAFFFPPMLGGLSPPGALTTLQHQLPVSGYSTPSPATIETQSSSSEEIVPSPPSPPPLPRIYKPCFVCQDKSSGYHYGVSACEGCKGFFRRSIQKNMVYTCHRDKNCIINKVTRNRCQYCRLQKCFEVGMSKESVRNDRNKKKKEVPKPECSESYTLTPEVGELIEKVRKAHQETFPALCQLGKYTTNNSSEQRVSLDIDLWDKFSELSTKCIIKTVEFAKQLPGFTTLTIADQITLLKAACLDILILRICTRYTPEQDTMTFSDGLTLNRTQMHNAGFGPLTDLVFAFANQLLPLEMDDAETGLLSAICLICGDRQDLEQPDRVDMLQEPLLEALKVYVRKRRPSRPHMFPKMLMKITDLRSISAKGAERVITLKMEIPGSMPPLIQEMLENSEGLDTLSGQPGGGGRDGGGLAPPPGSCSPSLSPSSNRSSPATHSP
assay-explanation: Antagonist activity at recombinant human RAR-alpha expressed in mammalian cells in presence of 9-cis-RA by luciferase reporter gene based transactivation assay
Assay type: cell-based
pIC50: −log10 of the molar value.
Below, each entry is listed alongside its reported pIC50.
measurement-kind: pIC50

1) CC1(C)CC=C(c2ccc(N3CCOCC3)cc2)c2cc(C(=O)Nc3ccc(C(=O)O)cc3)ccc21 | 5.96
2) CC1(C)CC=C(c2ccccc2)c2cc(/C=C/c3ccc(C(=O)O)cc3)ccc21 | 8.03
3) CC1(C)CC=C(c2ccc(N3CCOCC3)cc2)c2cc(NC(=O)Nc3ccc(C(=O)O)cc3)ccc21 | < 5.48
4) Cc1ccc(C2=CC(C)(C)Oc3ccc(NS(=O)(=O)c4ccc(C(=O)O)cc4)cc32)cc1 | < 5.48
5) Cc1ccc(C2=CC(C)(C)Oc3c(Br)cc(S(=O)(=O)Nc4cc(F)c(C(=O)O)c(F)c4)cc32)cc1 | < 5.48
6) CC1(C)CC=C(c2ccc(C(=O)N3CCOCC3)cc2)c2cc(NC(=O)c3ccc(C(=O)O)cc3)ccc21 | < 5.48
7) Cc1ccc(C2=CCC(C)(C)c3ccc(NC(=O)Nc4ccc(C(=O)O)cc4)cc32)cc1 | < 5.48
8) Cc1ccc(C2=CCC(C)(C)c3ccc(-c4ccc5cc(C(=O)O)ccc5n4)cc32)cc1 | < 5.48
9) Cc1ccc(C2=CCC(C)(C)c3ccc(C(=O)Nc4cc(F)c(C(=O)O)c(F)c4)cc32)cc1 | 6.37
10) Cc1ccc(C2=CC(C)(C)Oc3ccc(S(=O)(=O)Nc4cc(F)c(C(=O)O)c(F)c4)cc32)cc1 | < 5.48
11) Cc1ccc(C2=CCC(C)(C)c3ccc(C(=O)NCc4ccc(C(=O)O)cc4)cc32)cc1 | < 5.48
12) Cc1ccc(C2=CC(C)(C)Oc3ccc(S(=O)(=O)Nc4ccc(C(=O)O)cc4)cc32)cc1 | < 5.48

====

tested-target: Retinoic acid receptor beta (Homo sapiens, UniProt P10826)
Sequence (P10826 whole entry): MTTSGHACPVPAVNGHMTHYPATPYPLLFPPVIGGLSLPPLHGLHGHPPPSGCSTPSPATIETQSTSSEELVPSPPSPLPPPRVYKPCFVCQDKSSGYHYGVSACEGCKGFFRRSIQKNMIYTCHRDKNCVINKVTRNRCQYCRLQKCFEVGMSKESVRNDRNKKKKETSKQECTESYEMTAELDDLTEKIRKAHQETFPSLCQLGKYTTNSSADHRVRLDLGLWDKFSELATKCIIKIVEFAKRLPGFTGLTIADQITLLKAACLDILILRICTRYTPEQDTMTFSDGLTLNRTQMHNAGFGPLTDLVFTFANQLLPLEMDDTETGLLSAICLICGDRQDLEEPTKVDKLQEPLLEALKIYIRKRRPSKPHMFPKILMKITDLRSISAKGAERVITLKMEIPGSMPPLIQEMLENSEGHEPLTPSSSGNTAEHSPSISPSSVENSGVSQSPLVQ
assay-explanation: Antagonist activity at recombinant human RAR-beta expressed in mammalian cells in presence of ATRA by luciferase reporter gene based transactivation assay
Below, each entry is listed alongside its reported IC50.
measurement-kind: IC50

1) CC1(C)CC=C(c2cnc3ccccc3c2)c2cc(C(=O)Nc3ccc(C(=O)O)cc3)ccc21 | 260 nM
2) Cc1ccc(C2=CCC(C)(C)c3ccc(N4CCc5cc(C(=O)O)ccc5C4)cc32)cc1 | 350 nM
3) Cc1ccc(C2=CCC(C)(C)c3ccc(C(=O)N4CCc5cc(C(=O)O)ccc5C4)cc32)cc1 | > 3300 nM
4) CC1(C)CC=C(c2ccc(N3CCOCC3)cc2)c2cc(NC(=O)Nc3ccc(C(=O)O)cc3)ccc21 | > 3300 nM
5) Cc1ccc(C2=CCC(C)(C)c3ccc(C(=O)Nc4ccc(C(=O)O)cc4)cc32)cc1 | > 3300 nM
6) Cc1ccc(C2=CCC(C)(C)c3ccc(-c4ccc5cc(C(=O)O)ccc5n4)cc32)cc1 | 21 nM
7) Cc1ccc(C2=CC(C)(C)Oc3ccc(C(=O)Nc4ccc(C(=O)O)cc4)cc32)cc1 | > 3300 nM
8) Cc1ccc(C2=CC(C)(C)Oc3c(Br)cc(S(=O)(=O)Nc4ccc(C(=O)O)cc4)cc32)cc1 | > 3300 nM
9) CC1(C)CC=C(c2ccc(N3CCOCC3)cc2)c2cc(NC(=O)c3ccc(C(=O)O)c([N+](=O)[O-])c3)ccc21 | > 3300 nM
